- experimental system: CCDC6-RET (Homo sapiens, UniProt P07949+Q16204+Q96SW2)
- Construct: CCDC6 (natural N-terminal fusion partner, UniProt Q16204); endogenous in cells; host or cells: TPC-1 (parental, papillary thyroid carcinoma)
- Sequence (Q16204+P07949 fused): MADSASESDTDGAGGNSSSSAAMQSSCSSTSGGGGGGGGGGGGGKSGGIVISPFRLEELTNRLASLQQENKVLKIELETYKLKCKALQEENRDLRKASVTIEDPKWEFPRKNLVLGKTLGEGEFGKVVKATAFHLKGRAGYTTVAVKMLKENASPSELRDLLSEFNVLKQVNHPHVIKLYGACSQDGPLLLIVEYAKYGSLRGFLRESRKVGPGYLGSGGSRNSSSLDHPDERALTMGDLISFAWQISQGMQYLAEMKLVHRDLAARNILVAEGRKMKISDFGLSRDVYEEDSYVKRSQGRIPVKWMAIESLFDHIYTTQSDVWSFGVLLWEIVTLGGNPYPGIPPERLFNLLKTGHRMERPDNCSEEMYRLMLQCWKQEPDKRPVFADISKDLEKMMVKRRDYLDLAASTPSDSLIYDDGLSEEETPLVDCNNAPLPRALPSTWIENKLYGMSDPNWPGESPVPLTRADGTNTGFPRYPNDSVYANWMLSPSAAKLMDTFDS
- Sequence (Q96SW2 whole entry, the tested form may be a part): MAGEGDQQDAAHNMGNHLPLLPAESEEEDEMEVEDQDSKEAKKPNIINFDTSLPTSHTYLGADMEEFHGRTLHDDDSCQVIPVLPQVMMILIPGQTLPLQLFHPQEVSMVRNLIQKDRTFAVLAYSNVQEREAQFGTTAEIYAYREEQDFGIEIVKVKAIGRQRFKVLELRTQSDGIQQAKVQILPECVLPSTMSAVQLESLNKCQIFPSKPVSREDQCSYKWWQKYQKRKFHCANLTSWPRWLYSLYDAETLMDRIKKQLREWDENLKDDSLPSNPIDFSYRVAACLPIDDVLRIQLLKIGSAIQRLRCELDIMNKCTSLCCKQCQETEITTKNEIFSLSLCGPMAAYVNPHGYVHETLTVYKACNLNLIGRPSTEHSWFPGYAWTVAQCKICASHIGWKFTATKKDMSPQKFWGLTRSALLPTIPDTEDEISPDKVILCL
- Sequence (Q16531 whole entry partner, the tested form may be a part): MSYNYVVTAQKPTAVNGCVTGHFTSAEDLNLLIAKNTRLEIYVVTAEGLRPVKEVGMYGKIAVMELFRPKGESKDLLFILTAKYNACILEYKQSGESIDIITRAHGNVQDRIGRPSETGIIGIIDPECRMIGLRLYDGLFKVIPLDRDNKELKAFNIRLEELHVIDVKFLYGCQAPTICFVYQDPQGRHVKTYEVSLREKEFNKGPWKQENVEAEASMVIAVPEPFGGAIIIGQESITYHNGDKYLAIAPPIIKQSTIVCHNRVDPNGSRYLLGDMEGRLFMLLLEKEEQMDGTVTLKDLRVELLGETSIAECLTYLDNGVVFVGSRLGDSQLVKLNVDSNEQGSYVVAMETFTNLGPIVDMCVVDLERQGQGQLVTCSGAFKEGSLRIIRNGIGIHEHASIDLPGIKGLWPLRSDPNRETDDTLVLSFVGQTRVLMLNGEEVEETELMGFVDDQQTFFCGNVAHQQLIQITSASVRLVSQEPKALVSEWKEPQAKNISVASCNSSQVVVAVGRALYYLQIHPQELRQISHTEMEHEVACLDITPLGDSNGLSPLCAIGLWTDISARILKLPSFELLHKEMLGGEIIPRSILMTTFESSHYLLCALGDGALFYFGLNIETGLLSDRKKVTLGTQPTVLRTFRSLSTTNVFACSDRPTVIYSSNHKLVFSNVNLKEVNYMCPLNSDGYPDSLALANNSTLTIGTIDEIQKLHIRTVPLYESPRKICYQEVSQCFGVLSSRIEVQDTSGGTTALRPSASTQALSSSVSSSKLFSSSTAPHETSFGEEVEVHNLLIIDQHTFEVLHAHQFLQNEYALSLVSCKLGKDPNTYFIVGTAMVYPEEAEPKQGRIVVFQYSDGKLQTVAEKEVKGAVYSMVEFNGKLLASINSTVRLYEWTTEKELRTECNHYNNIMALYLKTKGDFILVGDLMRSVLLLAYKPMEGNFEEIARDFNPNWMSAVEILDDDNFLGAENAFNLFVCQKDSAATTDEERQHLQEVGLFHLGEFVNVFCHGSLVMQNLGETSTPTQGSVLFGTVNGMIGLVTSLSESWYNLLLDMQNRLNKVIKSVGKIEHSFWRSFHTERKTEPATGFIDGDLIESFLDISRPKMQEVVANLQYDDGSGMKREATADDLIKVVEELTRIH
- assay details: Cellular RET degradation, AlphaLISA, TPC-1 cell line
- Format: cell-based
- experimental parameters: TPC1, human, 24 h, read-out: Cell Density TPC-1/CCDC6-RET Ymax %
Listed here: items and their measured Dmax.

Observe how each entry below is paired with its result.
CCOc1cc(-c2ccc(N3CCC(COCc4cn(CCCCCCN5CCN(c6ccc7c(c6)CN(C6CCC(=O)NC6=O)C7=O)CC5)nn4)(NC(=O)c4cc(F)ccc4F)CC3)nc2)c2c(C#N)cnn2c1 (stereo not drawn) = > 90%
CCOc1cc(-c2ccc(N3CCC(CN4CCN(C(=O)CCN5CCN(c6ccc7c(c6)CN(C6CCC(=O)NC6=O)C7=O)CC5)CC4)(C(=O)NC(C)C)CC3)nc2)c2c(C#N)cnn2c1 (stereo not drawn) = 60 to 90%

As a next step, examine the compound that follows.
Inquiry: Name the reported Dmax value associated with the compound `CCOc1cc(-c2ccc(N3CCC(CN4CCN(C5CN(C(=O)c6ccc7c(N8CCC(=O)NC8=O)nn(C)c7c6)C5)CC4)(NC(=O)c4cc(F)ccc4F)CC3)nc2)c2c(C#N)cnn2c1`
Reply text: > 90%

---

- experimental system: CCDC6-RET (Homo sapiens, UniProt P07949+Q16204+Q96SW2)
- Construct: CCDC6 (natural N-terminal fusion partner, UniProt Q16204); endogenous in cells; host or cells: TPC-1 (parental, papillary thyroid carcinoma)
- assay details: Cellular RET degradation, AlphaLISA, TPC-1 cell line
- Type: cell-based
- experimental parameters: read-out: Cell Density TPC-1/CCDC6-RET DC50; half-maximal degradation concentration; TPC-1 (CCDC6-RET), 24 hrs
readout: DC50

CCOc1cc(-c2ccc(N3CCC(CN4CCN(C(=O)CN5CCC(c6ccc7c(N8CCC(=O)NC8=O)nn(C)c7c6)CC5)CC4)(NC(=O)c4cc(F)ccc4F)CC3)nc2)c2c(C#N)cnn2c1 [Example 44] = < 2 nM
CCOc1cc(-c2ccc(N3CCC(NC(=O)c4cc(F)ccc4F)(C(=O)NCCCCCCCCCCNc4cccc5c(N6CCC(=O)NC6=O)nn(C)c45)CC3)nc2)c2c(C#N)cnn2c1 [Example 150] = 10 to 100 nM
CCOc1cc(-c2ccc(N3CCC(CN(C(=O)CCCCCCN4CCN(c5ccc6c(c5)C(=O)N(C5CCC(=O)NC5=O)C6)CC4)C(C)C)(NC(=O)c4cc(F)ccc4F)CC3)nc2)c2c(C#N)cnn2c1 (stereo not shown) [Example 169] = 10 to 100 nM

Inquiry: Item CCOc1cc(-c2ccc(N3CCC(CN(C(=O)CCCCN4CCC(c5ccc6c(c5)C(=O)N(C5CCC(=O)NC5=O)C6)CC4)C(C)C)(NC(=O)c4cc(F)ccc4F)CC3)nc2)c2c(C#N)cnn2c1 (stereo not shown) [Example 170] with CCDC6-RET (Homo sapiens, UniProt P07949+Q16204+Q96SW2) - DC50?
Reply text: 100 to 2000 nM
